Origin of values: paper PMC2753476

# study_system: glOTC (Giardia duodenalis, UniProt O76458)
# Sequence (O76458 1-327): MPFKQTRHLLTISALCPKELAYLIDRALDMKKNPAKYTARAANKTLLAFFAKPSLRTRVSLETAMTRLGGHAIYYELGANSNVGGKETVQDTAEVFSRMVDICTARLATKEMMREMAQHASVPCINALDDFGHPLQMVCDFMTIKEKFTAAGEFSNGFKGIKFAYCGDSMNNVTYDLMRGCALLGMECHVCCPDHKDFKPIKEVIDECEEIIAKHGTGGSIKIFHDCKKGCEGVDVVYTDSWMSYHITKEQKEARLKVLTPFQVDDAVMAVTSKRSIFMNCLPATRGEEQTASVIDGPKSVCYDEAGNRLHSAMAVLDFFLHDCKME
recorded_endpoint: Ki (nM)
Return type: number; implicit unit nM.

// `N[C@@H](CCCNC(=O)CP(=O)(O)O)C(=O)O` : Ki value = 25
